Biological target: UniProt P28335
Assay: 5-HT2C receptor-stimulated calcium mobilization (FLIPR) in CHO cells
Format: cell-based
Conditions: calcium mobilization, CHO cells stably expressing human 5-HT2C; read-out: 5-HT2C Function EC50
pEC50: −log10 of the molar value.
pEC50 vs 7: at or above is class 1, below is class 0.

In plain terms: is recorded pEC50 at least 7 for NCC1Cc2cccc(-c3ccc(C(F)(F)F)cc3)c2O1 (racemic) [Example 82] ?
class 0

Could you please find out whether NCC1Cc2cc(F)cc(-c3ccccc3Cl)c2O1 (single isomer, unassigned; (-)) [Example 102] has pEC50 that meets 7 or exceeds it?
class 1

pEC50 >= 7 for Cc1ccc(-c2cc(C)cc3c2OC(CN)C3)cc1 (racemic) ?
class 1

// inclusive: pEC50 at least 7? input: CC(C)(C)c1cc(Cl)cc2c1OC(CN)C2 (racemic) [Example 27]
class 0

Could you please find out whether Cc1cccc(C)c1-c1cc(C(F)(F)F)cc2c1OC(CN)C2 (racemic) has pEC50 that meets 7 or exceeds it?
class 1

Evaluate Cc1ccccc1-c1cc(C(C)C)cc2c1OC(CN)C2 (racemic) : pEC50 at minimum 7?
class 1

Given CNCC1Cc2cc(C)cc(-c3ccccc3F)c2O1 (racemic) , state whether its pEC50 is at least 7.
class 1

Check the entry NCC1Cc2cc(Cl)cc(-c3ccc(Cl)cc3Cl)c2O1 (racemic) [Example 251] : does pEC50 equal or exceed 7?
class 1

pEC50 >= 7 for NCC1Cc2cc(F)cc(-c3ccccc3C(F)(F)F)c2O1 (single isomer, unassigned; (-)) [Example 151] ?
class 1

Entry NCC1Cc2cccc(-c3ccccc3Cl)c2O1 (racemic) [Example 60] : is its pEC50 no less than 7?
class 1

# bool: pEC50 of CNCC1Cc2cccc(-c3cccnc3)c2O1 (racemic) >= 7
class 1

Check this compound for pEC50 at or above 7: NCC1Cc2cccc(-c3ccc(C(F)(F)F)cc3)c2O1 (single isomer, unassigned; (+)) [Example 137]
class 0

# bool: pEC50 of COc1cc2c(c(-c3cccc(C)c3C)c1)OC(CN)C2 (racemic) >= 7
class 0

Quick check, pEC50 >= 7? NCC1Cc2cccc(-c3c(F)cccc3F)c2O1 (racemic)
class 1

# check: pEC50 of Cc1cccc(-c2cc(Cl)cc3c2OC(CN)C3)c1C (racemic) is greater than or equal to 7
class 0

Determine whether this compound has pEC50 no lower than 7: NCC1Cc2cc(F)cc(-c3c(F)cccc3F)c2O1 (racemic)
class 1

Please indicate if the recorded pEC50 for NCC1Cc2cccc(-c3cccnc3)c2O1 (racemic) [Example 170] meets or exceeds 7.
class 1

hey, is pEC50 for this one >= 7? Cc1cccc(C)c1-c1cccc2c1OC(CN)C2 (single isomer, unassigned; (-)) [Example 57]
class 1

Determine whether measured pEC50 meets or exceeds 7 for NCC1Cc2cccc(-c3c(Cl)cccc3Cl)c2O1 (single isomer, unassigned; (-)) [Example 141]
class 1

Has COc1ccc(Cl)cc1-c1cc(Cl)cc2c1OC(CN)C2 (racemic) a recorded pEC50 greater than or equal to 7?
class 0

For this compound, is measured pEC50 7 or higher? NCC1Cc2cccc(-c3ccc(Cl)cc3Cl)c2O1 (single isomer, unassigned; (-)) [Example 149]
class 1

Item CNCC1Cc2cc(Cl)cc(-c3cc(Cl)ccc3Cl)c2O1 (single isomer, unassigned; (+)) [Example 562] with pEC50 of 7 or above?
class 1

Could you verify whether the entry Cc1ccc(-c2cc(F)cc3c2OC(CN)C3)cc1 (racemic) shows pEC50 of no less than 7?
class 0

Given CC(C)NCC1Cc2cccc(-c3c(Cl)cccc3Cl)c2O1 (racemic) , state whether its pEC50 is at least 7.
class 1

Please indicate if the recorded pEC50 for NCC1Cc2cccc(-c3cccnc3)c2O1 (single isomer, unassigned; (+)) [Example 171] meets or exceeds 7.
class 1

Could you verify whether the entry CNCC1Cc2cc(C)cc(-c3cccc(C)c3)c2O1 (racemic) shows pEC50 of no less than 7?
class 0

Identify whether the reported pEC50 of the following compound is 7 or greater: CNCC1Cc2cc(F)cc(-c3ccccc3C)c2O1 (single isomer, unassigned; (-)) [Example 441]
class 0

Would you say Clc1cccc(Cl)c1-c1cccc2c1OC(CNC1CC1)C2 (racemic) shows pEC50 at minimum 7?
class 1

Threshold query (pEC50 >= 7) on CNCC1Cc2cc(Cl)cc(-c3ccc(OC)cc3OC)c2O1 (racemic)
class 1

----------
Exercise: state measured pEC50 for each of the molecules provided.
Target: human 5-HT2C receptor (Homo sapiens, UniProt P28335)
Sequence (P28335 33-458): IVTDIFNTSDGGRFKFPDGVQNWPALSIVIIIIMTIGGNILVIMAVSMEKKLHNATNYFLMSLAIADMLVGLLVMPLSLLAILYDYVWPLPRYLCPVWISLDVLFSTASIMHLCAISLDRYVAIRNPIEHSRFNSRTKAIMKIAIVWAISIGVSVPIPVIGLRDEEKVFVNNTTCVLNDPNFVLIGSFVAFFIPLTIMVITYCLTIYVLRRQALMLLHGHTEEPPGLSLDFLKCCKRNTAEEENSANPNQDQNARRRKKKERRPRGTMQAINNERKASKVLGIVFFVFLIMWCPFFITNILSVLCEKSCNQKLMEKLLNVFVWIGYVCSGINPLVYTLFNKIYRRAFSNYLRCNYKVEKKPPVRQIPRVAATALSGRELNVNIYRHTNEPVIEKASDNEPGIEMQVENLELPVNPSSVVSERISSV
Assay: 5-HT2C receptor-stimulated calcium mobilization (FLIPR) in CHO cells;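 also: Fluo-3-AM fluorescence read on FLIPR every 1 s, agonist added after 10 baseline reads, response taken as peak minus lowest raw fluorescence count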
Type: cell-based
Details: calcium mobilization, CHO cells stably expressing human 5-HT2C; read-out: 5-HT2C Function EC50
Quick note: pEC50 means taking -log10 of the concentration in moles per liter.

Recorded pEC50 for NCC1Cc2cc(Cl)cc(-c3cccc(F)c3F)c2O1 (single isomer, unassigned) [Example 246] on human 5-HT2C receptor (Homo sapiens, UniProt P28335) was 5.83

Case CNCC1Cc2cc(OC)cc(-c3cc(OC)ccc3OC)c2O1 (racemic) , human 5-HT2C receptor (Homo sapiens, UniProt P28335), pEC50 recorded as 7.15

Measured on human 5-HT2C receptor (Homo sapiens, UniProt P28335), Cc1cc(Cl)ccc1-c1cccc2c1OC(CN)C2 (racemic) [Example 167] has a documented pEC50 of 7.68

Form field pEC50 for item NCC1Cc2c(cccc2-c2ccccc2)O1 (single isomer, unassigned; (+)) [Example 2] on human 5-HT2C receptor (Homo sapiens, UniProt P28335): 7.21

Field pEC50 (system: human 5-HT2C receptor (Homo sapiens, UniProt P28335)) for entry Cc1ccccc1-c1cc(F)cc2c1OC(CN)C2 (single isomer, unassigned; (+)) [Example 105] = 8.40

Lab note: molecule COc1cc2c(c(-c3ccccc3F)c1)OC(CN)C2 (racemic) tested on human 5-HT2C receptor (Homo sapiens, UniProt P28335); recorded pEC50 was 7.20

Let me check: CNCC1Cc2cc(F)cc(-c3ccc(Cl)cc3Cl)c2O1 (single isomer, unassigned; (-)) [Example 446] , system human 5-HT2C receptor (Homo sapiens, UniProt P28335), measured pEC50 is 6.34

Kindly note: human 5-HT2C receptor (Homo sapiens, UniProt P28335), CNCC1Cc2cc(Cl)cc(-c3cccc(Cl)c3Cl)c2O1 (racemic) , pEC50 value reported: 6.34

----------
Biological target: human 5-hydroxytryptamine-2C (h5-HT2C) receptor (Homo sapiens)
Construct: expressed in transfected cells; host or cells: CHO (Chinese Hamster Ovary) cells; membranes
Sequence (P28335 33-458): as above
Assay: [125I]DOI binding to membranes of CHO cells expressing the human 5-HT2C receptor
Settings: [125I]DOI radioligand, CHO cell membranes, room temperature 60 min; read-out: 5-HT2C Affinity Ki
Exercise: state measured Ki for each of the compounds provided.
Quick note: give the figure in nM, leave out the unit.

Field Ki (system: human 5-hydroxytryptamine-2C (h5-HT2C) receptor (Homo sapiens)) for entry Cc1ccc(Cl)cc1-c1cccc2c1OC(CN)C2 (racemic) = 2

Record CC(C)(C)c1cc(Cl)cc2c1OC(CN)C2 (racemic) [Example 27] has human 5-hydroxytryptamine-2C (h5-HT2C) receptor (Homo sapiens) Ki equal to 39

Tested on human 5-hydroxytryptamine-2C (h5-HT2C) receptor (Homo sapiens): COc1cccc(-c2cc(F)cc3c2OC(CN)C3)c1OC (racemic) . Observed Ki: 2.4

Recorded Ki for CNCC1Cc2cc(-c3ccccc3F)cc(F)c2O1 (racemic) on human 5-hydroxytryptamine-2C (h5-HT2C) receptor (Homo sapiens) was 915

I looked up NCC1Cc2cccc(Cc3ccccc3)c2O1 (single isomer, unassigned; (-)) [Example 17] and its Ki for human 5-hydroxytryptamine-2C (h5-HT2C) receptor (Homo sapiens) was 66

Entry Cc1ccc(C)c(-c2cccc3c2OC(CN)C3)c1 (racemic) , human 5-hydroxytryptamine-2C (h5-HT2C) receptor (Homo sapiens) data, Ki value: 8

Here NCC1Cc2cc(Cl)cc(-c3cccc(F)c3F)c2O1 (racemic) [Example 244] was tested on human 5-hydroxytryptamine-2C (h5-HT2C) receptor (Homo sapiens), and its Ki came to 0.74

Note to self: Ki of NCC1Cc2cccc(-c3ccccc3Cl)c2O1 (single isomer, unassigned; (-)) [Example 129] with human 5-hydroxytryptamine-2C (h5-HT2C) receptor (Homo sapiens) was 0.3

# value of Ki, human 5-hydroxytryptamine-2C (h5-HT2C) receptor (Homo sapiens), item CC(C)(C)c1cccc2c1OC(CN)C2 (racemic) [Example 24] = 36

Measured Ki (human 5-hydroxytryptamine-2C (h5-HT2C) receptor (Homo sapiens)), entry CNCC1Cc2cc(-c3ccccc3Cl)cc(F)c2O1 (racemic) : 616

Given the compound NCC1Cc2cccc(C3CCCC3)c2O1 (single isomer, unassigned; (+)) [Example 10] and test system human 5-hydroxytryptamine-2C (h5-HT2C) receptor (Homo sapiens), the measured Ki is 42

# value of Ki, human 5-hydroxytryptamine-2C (h5-HT2C) receptor (Homo sapiens), item Cc1ccc(-c2cccc3c2OC(CN)C3)cc1 (single isomer, unassigned; (-)) [Example 72] = 33

Form field Ki for item NCC1Cc2cccc(-c3ccc(C(F)(F)F)cc3)c2O1 (single isomer, unassigned; (+)) [Example 137] on human 5-hydroxytryptamine-2C (h5-HT2C) receptor (Homo sapiens): 1.2

Bench note, human 5-hydroxytryptamine-2C (h5-HT2C) receptor (Homo sapiens): CNCC1Cc2cc(F)cc(-c3c(Cl)cccc3Cl)c2O1 (racemic) , Ki reads 0.26

So the reported Ki for CNCC1Cc2cc(C)cc(-c3cc(Cl)ccc3Cl)c2O1 (single isomer, unassigned; (+)) [Example 487] , on human 5-hydroxytryptamine-2C (h5-HT2C) receptor (Homo sapiens), turned out to be 0.06

Bench note, human 5-hydroxytryptamine-2C (h5-HT2C) receptor (Homo sapiens): entry NCC1Cc2cccc(-c3ccccc3F)c2O1 (single isomer, unassigned; (+)) [Example 51] , its Ki = 1

Value sought: Ki, system human 5-hydroxytryptamine-2C (h5-HT2C) receptor (Homo sapiens), item NCC1Cc2cc(-c3ccccc3)cc(-c3ccccc3)c2O1 (racemic) . Result: 275

Entry NCC1Cc2cc(Cl)cc(-c3ccc(F)c(Cl)c3)c2O1 (racemic) under human 5-hydroxytryptamine-2C (h5-HT2C) receptor (Homo sapiens) had Ki of 69

Ki on human 5-hydroxytryptamine-2C (h5-HT2C) receptor (Homo sapiens) for CNCC1Cc2cc(-c3ccc(Cl)cc3)cc(F)c2O1 (racemic) is 209

The reported Ki value, human 5-hydroxytryptamine-2C (h5-HT2C) receptor (Homo sapiens), for NCC1Cc2cc(C(F)(F)F)cc(-c3ccoc3)c2O1 (racemic) reads 36

Cc1ccccc1-c1cc(Cl)cc2c1OC(CN)C2 (single isomer, unassigned; (+)) [Example 96] on human 5-hydroxytryptamine-2C (h5-HT2C) receptor (Homo sapiens) gives Ki = 1

With human 5-hydroxytryptamine-2C (h5-HT2C) receptor (Homo sapiens) as the test system, Cc1cc(C)cc(Nc2cccc3c2OC(CN)C3)c1 (racemic) showed Ki of 142

Kindly note: human 5-hydroxytryptamine-2C (h5-HT2C) receptor (Homo sapiens), NCC1Cc2cc(Cl)cc(C3CCCCC3)c2O1 (racemic) , Ki value reported: 106

Value (Ki, human 5-hydroxytryptamine-2C (h5-HT2C) receptor (Homo sapiens)) for record CNCC1Cc2cc(Cl)cc(-c3ccsc3)c2O1 (single isomer, unassigned; (-)) [Example 94] = 176

Form: item NCC1Cc2cc(-c3ccc(C(F)(F)F)cc3)cc(F)c2O1 (racemic) ; test system human 5-hydroxytryptamine-2C (h5-HT2C) receptor (Homo sapiens); Ki: 1580

Recorded Ki for Cc1ccccc1-c1cc(F)cc2c1OC(CN)C2 (single isomer, unassigned; (-)) [Example 106] on human 5-hydroxytryptamine-2C (h5-HT2C) receptor (Homo sapiens) was 16

Bench note, human 5-hydroxytryptamine-2C (h5-HT2C) receptor (Homo sapiens): COc1cc2c(c(C(C)(C)C)c1)OC(CN)C2 (single isomer, unassigned; (-)) [Example 115] , Ki reads 79

Short answer on human 5-hydroxytryptamine-2C (h5-HT2C) receptor (Homo sapiens) for Cc1ccccc1-c1cccc2c1CC(CN)O2 (racemic) [Example 4] , Ki: 26

Field Ki (human 5-hydroxytryptamine-2C (h5-HT2C) receptor (Homo sapiens)), entry NCC1Cc2cc(Cl)cc(-c3cccc(F)c3F)c2O1 (single isomer, unassigned) [Example 246] : 23

Param item: NCC1Cc2cc(C(F)(F)F)cc(-c3cccc(F)c3F)c2O1 (racemic) ; param system: human 5-hydroxytryptamine-2C (h5-HT2C) receptor (Homo sapiens); output Ki: 87

So the reported Ki for NCC1Cc2cc(F)cc(-c3cc(F)ccc3F)c2O1 (racemic) , on human 5-hydroxytryptamine-2C (h5-HT2C) receptor (Homo sapiens), turned out to be 8

// assay human 5-hydroxytryptamine-2C (h5-HT2C) receptor (Homo sapiens), entry CNCC1Cc2cc(-c3ccccc3OC)cc(F)c2O1 (racemic) , Ki value = 3350

Log: human 5-hydroxytryptamine-2C (h5-HT2C) receptor (Homo sapiens), compound Cc1cccc(C)c1-c1cccc2c1OC(CN)C2 (single isomer, unassigned; (-)) [Example 57] , Ki = 1

# Cc1cccc(C)c1-c1cccc2c1OC(CN)C2 (racemic) [Example 56] with human 5-hydroxytryptamine-2C (h5-HT2C) receptor (Homo sapiens): Ki is 1
